Total Cell Count: recorded values
Tested on: HEK-293T
TEST METHOD NOTES: Multiplex assay against HEK293T
Type: toxicity, cell-based
CONDITIONS: human, 12 h, 10 µM, compound concentration 10 uM, replicate 1

[
  {
    "COMPOUND": "CN(C)CCCc1cc(C(=O)Nc2ccc(-c3ccncc3)cc2)ccc1O.Cl.Cl",
    "Total Cell Count": 460
  },
  {
    "COMPOUND": "CC[C@H]1OC(=O)[C@H](C)[C@@H](O[C@H]2C[C@@](C)(OC)[C@@H](O)[C@H](C)O2)[C@H](C)[C@@H](O[C@@H]2O[C@H](C)C[C@H](N(C)C)[C@H]2O)[C@@]2(C)CC(C)=C(O2)[C@H](C)[C@@H](O)[C@]1(C)O",
    "Total Cell Count": 383
  },
  {
    "COMPOUND": "Cc1nc2ccc(Oc3ccc(F)cc3)cc2c(=O)n1C[C@H]1CCCN(C(C)C)C1.Cl",
    "Total Cell Count": 405
  },
  {
    "COMPOUND": "O=C1COc2nccc(-c3ccccc3F)c2CN1Cc1cc(C(F)(F)F)cc(C(F)(F)F)c1",
    "Total Cell Count": 475
  },
  {
    "COMPOUND": "C[C@H](NC(=O)c1c(C(F)F)nn(C)c1Oc1cccc(C(F)(F)F)c1)c1ccc(C(=O)O)cc1 [PALUPIPRANT]",
    "Total Cell Count": 371
  }
]

* * *

System: U2OS
TEST METHOD NOTES: Multiplex assay against U2OS
Format: toxicity, cell-based
CONDITIONS: human, 48 h, 1 µM, compound concentration 1 uM, replicate 1

[
  {
    "MOLECULE": "COc1ccc2c(c1)C(C(=O)N(Cc1ccc(N(C)C)cc1)c1ccc(C(C)C)cc1)CCC2.Cl (stereo unspecified)",
    "Population Healthy Nuclei (%)": 65
  },
  {
    "MOLECULE": "CSCC[C@H](NC=O)C(=O)N[C@@H](CC(C)C)C(=O)N[C@@H](Cc1ccccc1)C(=O)O",
    "Population Healthy Nuclei (%)": 75
  },
  {
    "MOLECULE": "N#Cc1c(N)nc(SCc2csc(-c3ccc(Cl)cc3)n2)c(C#N)c1-c1ccc(OCCO)cc1",
    "Population Healthy Nuclei (%)": 67
  },
  {
    "MOLECULE": "CCCN1CCC[C@@H]2Cc3n[nH]cc3C[C@H]21.Cl [QUINPIROLE HYDROCHLORIDE]",
    "Population Healthy Nuclei (%)": 74
  },
  {
    "MOLECULE": "CN1CCN(c2nc3cc(C(F)(F)F)ccc3n3cccc23)CC1.O=C(O)/C=C\\C(=O)O.O=C(O)/C=C\\C(=O)O",
    "Population Healthy Nuclei (%)": 77
  },
  {
    "MOLECULE": "Cc1ccc(-c2ccc(F)cc2COc2ccc(CCC(=O)O)cc2)cc1",
    "Population Healthy Nuclei (%)": 74
  },
  {
    "MOLECULE": "O=C(O)c1cc2ccccc2c(Cc2c(O)c(C(=O)O)cc3ccccc23)c1O",
    "Population Healthy Nuclei (%)": 74
  },
  {
    "MOLECULE": "N[C@@]1(C(=O)O)CO[C@H]2[C@H](C(=O)O)[C@H]21",
    "Population Healthy Nuclei (%)": 79
  },
  {
    "MOLECULE": "CC(C)(C)c1ccc(S(=O)(=O)Nc2ccc(Cl)cc2C(=O)c2cc[n+]([O-])cc2)cc1",
    "Population Healthy Nuclei (%)": 73
  },
  {
    "MOLECULE": "CN(C)c1ccnc2sc3c(=O)n(N4CCCCCC4)cnc3c12",
    "Population Healthy Nuclei (%)": 74
  },
  {
    "MOLECULE": "Oc1c(CN2CCN(c3ccccn3)CC2)cc(Cl)c2cccnc12",
    "Population Healthy Nuclei (%)": 67
  },
  {
    "MOLECULE": "CN(C)CCCc1cc(C(=O)Nc2ccc(-c3ccncc3)cc2)ccc1O.Cl.Cl",
    "Population Healthy Nuclei (%)": 69
  },
  {
    "MOLECULE": "CSc1ccccc1N1CCN(CCCCCC(=O)NC2CCCc3ccccc32)CC1.Cl (stereo unspecified)",
    "Population Healthy Nuclei (%)": 53
  },
  {
    "MOLECULE": "Cc1ccc(/C(=C\\CN2CCCC2)c2ccccn2)cc1",
    "Population Healthy Nuclei (%)": 73
  },
  {
    "MOLECULE": "CCOc1c2c(c(OCC)c3ncccc13)CN(c1ccc(CS(=O)(=O)NC(=O)Cc3ccccc3OC)cc1C)C2=O",
    "Population Healthy Nuclei (%)": 74
  },
  {
    "MOLECULE": "CNC[C@H](O)c1ccc(O)c(O)c1 [EPINEPHRINE]",
    "Population Healthy Nuclei (%)": 66
  }
]
